target: T1, rHuman Notch-1/Fc Chimera, CF (R&D Systems Cat#3647-TK) (human, UniProt P46531 19-526); test: ECL multispot (MSD) binding assay, antigen spotted on plate;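 also: purified Fab incubated 1 h at 20 °C on antigen spots, detected with TAG-labelled antibody, electrochemiluminescence compared with each well's blank, signal-to-blank ratio ≥4 counted as hit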
T1 construct: Bought recombinant protein

binder	ECL signal
Fab VH1-46_IGHD6-6*01_IGHJ1*01 S102A/S103P/S104F/H111F (APFF) & L6_IGKJ1*01 S31D (Fab, V domains shown, Tested as Fab (CH1 with His6/Flag tags, kappa CL) made in E. coli; also called APFF / S31D) VH: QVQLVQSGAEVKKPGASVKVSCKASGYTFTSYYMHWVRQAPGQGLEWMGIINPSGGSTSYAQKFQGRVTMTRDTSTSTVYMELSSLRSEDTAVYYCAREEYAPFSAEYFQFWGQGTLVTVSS VL: EIVLTQSPATLSLSPGERATLSCRASQSVSDYLAWYQQKPGQAPRLLIYDASNRATGIPARFSGSGSGTDFTLTISSLEPEDFAVYYCQQRSNWPPWTFGQGTKVEIKR	510
Fab VH1-46_IGHD6-6*01_IGHJ1*01 S102A/S103P/S104F/H111F (APFF) & L6_IGKJ1*01 S31V (Fab, V domains shown, Tested as Fab (CH1 with His6/Flag tags, kappa CL) made in E. coli; also called APFF / S31V) VH: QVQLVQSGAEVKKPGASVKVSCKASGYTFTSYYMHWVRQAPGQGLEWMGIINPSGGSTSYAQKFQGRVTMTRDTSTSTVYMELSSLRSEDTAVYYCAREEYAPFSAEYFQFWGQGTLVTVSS VL: EIVLTQSPATLSLSPGERATLSCRASQSVSVYLAWYQQKPGQAPRLLIYDASNRATGIPARFSGSGSGTDFTLTISSLEPEDFAVYYCQQRSNWPPWTFGQGTKVEIKR	374
Fab VH1-46_IGHD6-6*01_IGHJ1*01 S102A/S103P/S104F/H111F (APFF) & L6_IGKJ1*01 S31I (Fab, V domains shown, Tested as Fab (CH1 with His6/Flag tags, kappa CL) made in E. coli; also called APFF / S31I) VH: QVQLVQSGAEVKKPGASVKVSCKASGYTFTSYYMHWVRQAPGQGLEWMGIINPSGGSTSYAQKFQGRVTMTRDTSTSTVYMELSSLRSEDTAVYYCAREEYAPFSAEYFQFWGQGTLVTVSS VL: EIVLTQSPATLSLSPGERATLSCRASQSVSIYLAWYQQKPGQAPRLLIYDASNRATGIPARFSGSGSGTDFTLTISSLEPEDFAVYYCQQRSNWPPWTFGQGTKVEIKR	421
Fab VH1-46_IGHD6-6*01_IGHJ1*01 S102A/S103P/S104F/H111F (APFF) & L6_IGKJ1*01 S31F (Fab, V domains shown, Tested as Fab (CH1 with His6/Flag tags, kappa CL) made in E. coli; also called APFF / S31F) VH: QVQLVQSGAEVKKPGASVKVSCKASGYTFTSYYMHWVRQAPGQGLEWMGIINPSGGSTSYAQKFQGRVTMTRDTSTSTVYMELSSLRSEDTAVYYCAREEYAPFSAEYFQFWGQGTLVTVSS VL: EIVLTQSPATLSLSPGERATLSCRASQSVSFYLAWYQQKPGQAPRLLIYDASNRATGIPARFSGSGSGTDFTLTISSLEPEDFAVYYCQQRSNWPPWTFGQGTKVEIKR	349
